- procedure.text: NCI Yeast Anticancer Drug Screen. Data for the mlh1 rad18 strain (AID 175)
- study.conditions: S. cerevisiae mlh1 rad18 strain growth inhibition; at 50.0 µM (retest, dose inferred, filed as 5.0)
The panel holds about 79,000 compounds, 15% with a hit somewhere; the sample as a whole holds those more often. Calls of active or inactive are those of the source. Rule as the data show it: active = growth inhibition above about 70%; inactive = the rest.
Possible outcomes: active, inactive

compound	assigned.class
O=C(c1ccccc1)N1CCCCC1	inactive
CCc1ccc(C(=O)O)c2ccccc12	active
Cc1ccc(NC(=O)CSC(N)=O)cc1C	inactive
COCCNC(=O)C1C(=O)N(CCOC)C(=O)/C1=N/N (stereo unspecified)	inactive
O=C(CC(C(=O)O)c1c[nH]c2ccccc12)c1ccccc1 (stereo unspecified)	inactive
CCOc1ccc2c(c1)[n+]([O-])c(-c1ccccc1)c(N)[n+]2[O-]	active
CCOC(=O)/C(=C/c1ccccc1Br)P(=O)(OCC)OCC	active
CCOc1ccc(C(OC)OC)cc1[N+](=O)[O-]	inactive
CSC(SC)(C(=O)O)c1cc(C)no1	inactive
CC(C)c1ccc(O)c(Cc2cc(C(C)C)ccc2O)c1	active
Cc1cc(S(=O)(=O)Nc2n[nH]c(-c3ccccn3)n2)c(S)cc1Cl	active
COC(=O)CNC(=O)C(F)(F)F	inactive
Cc1ccc2ccc3ccc(C)nc3c2n1	active
CCCC/C=C(/CCCNCCCC)[Si](C)(C)C	active
COc1cc2c(c(C)c1O)[C@H]1COc3ccccc3[C@H]1O2	inactive
Cc1c[nH]c2nc(C)n(-c3ccccc3)c(=N)c12	inactive
CC(=O)OC1C(O)C(C)OC(OC(=O)C2CCC3C(C2)OC2(CC(OC(=O)/C=C/c4ccccc4)C(C)CO2)C32CO2)C1OC1OC(C)C(O)C(O)C1O (stereo unspecified)	active
Cc1ccc(S(=O)(=O)OC2COC3C(OS(=O)(=O)c4ccc(C)cc4)COC23)cc1 (stereo unspecified)	inactive
c1ccc([P+](C[P+](c2ccccc2)(c2ccccc2)c2ccccc2)(c2ccccc2)c2ccccc2)cc1	active
O=C(NCCCN1CCN(CCCNC(=O)c2cc(-c3ccccc3)nc3ccccc23)CC1)c1cc(-c2ccccc2)nc2ccccc12	active
C/C(=N\N=C(N)N)c1ccc2c(c1)Cc1cc(/C(C)=N/N=C(N)N)ccc1-2	active
NCC(=O)N/N=C/c1ccc([N+](=O)[O-])o1	inactive
N#CC1(C#N)C(C#N)(C#N)C12CCCCCC2	active
N#CS/C=C/SC#N	active
c1ccc2cc3c(cc2c1)Nc1c2ccccc2nc2cccc-3c12	active
C=C1C[C@H]2C=Nc3cc(OCCCOc4cc5c(cc4OC)C(=O)N4CC(=C)C[C@H]4C=N5)c(OC)cc3C(=O)N2C1	active
Oc1ccc(O)c2nc3ccccc3nc12	active
C[Si](C)(CCC(=O)O)O[Si](C)(C)CCC(=O)O	inactive
C/C(=N\N(C)C(=S)Nc1ccccc1)c1ccccn1	inactive
O=C(Nc1ccccc1C(=O)O)c1ccccc1	inactive
COc1ccc(C(=O)C2OC2c2ccccc2)cc1 (stereo unspecified)	inactive
Clc1cc[c]([Sn]([O][Sn]([c]2ccc(Cl)cc2)([c]2ccc(Cl)cc2)[c]2ccc(Cl)cc2)([c]2ccc(Cl)cc2)[c]2ccc(Cl)cc2)cc1	active
Cc1c(-c2ccccc2)ccnc1/C=N/NC(=S)NCCc1ccccc1	active
O=C1/C(=C\c2ccc(Cl)cc2)SC2SC=C(c3ccc([N+](=O)[O-])cc3)N12 (stereo unspecified)	active
CN(C)CCOC(=O)C1(CCC2CCCCC2)CCCCC1	active
COc1ccc(/C=N/NS(=O)(=O)c2ccc(C)cc2)cc1	active

====

- procedure.text: NCI Yeast Anticancer Drug Screen. Data for the rad50 strain (AID 155);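 also: 0% = growth of vehicle-only cultures of the same strain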
- study.conditions: S. cerevisiae rad50 strain growth inhibition; at 50.0 µM (retest, dose inferred, filed as 5.0); active compounds read high
This is part of a sample that, as a whole, favours compounds with a hit. Of some 79,000 tested, about 15% had one in any assay.

compound	unit	growth inhibition
O=C1CC2Sc3ccccc3N=C2N1c1ccc(Cl)cc1Cl (stereo not given)	%	96
CC1C(=O)C(C)C(c2ccccc2)N(C)C1c1ccccc1 (stereo not given)	%	98
Fc1ccc(C2(CCCN3CCc4[nH]c5cc(F)ccc5c4C3)OCCO2)cc1	%	97
O=C(Nc1cccnc1)c1ccc(CSc2ccc(Cl)cc2)o1	%	97
COc1ccc(SSc2ccc(OC)n[n+]2[O-])[n+]([O-])n1	%	99

====

- procedure.text: NCI Yeast Anticancer Drug Screen. Data for the rad50 strain (AID 155);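 also: 0% = growth of vehicle-only cultures of the same strain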
- study.conditions: S. cerevisiae rad50 strain growth inhibition; at 50.0 µM; active compounds read high
The panel holds about 79,000 compounds, 15% with a hit somewhere; the sample as a whole holds those more often. Activity calls are given as the source filed them. No stated cut-off is given here; in the data, active means growth inhibition above about 70%; inactive means the rest.

compound	growth inhibition
[CH3][Sn]1([CH3])[O]C(=O)CCN=Cc2c(ccc3ccccc23)[O][Sn]([CH3])([CH3])[O]C(=O)CCN=Cc2c(ccc3ccccc23)[O]1	90.6% (active)
COC(=O)C1(Cc2ccc3c(c2)CCC3)Cc2ccc3c(c2C1O)CCC3 (stereo not given)	94.6% (active)
O=[N+]([O-])c1ccc(Sc2ccsc2)c([N+](=O)[O-])c1	46.5% (inactive)
OC(c1cc(-c2ccccc2)nc2c(Cl)cc(Cl)cc12)C1CCCCN1 (stereo not given)	99.5% (active)
CCCCCCCCN(CCCCCCCC)CC(O)c1cc(-c2ccc(Cl)cc2)nc2c(Cl)cccc12 (stereo not given)	19.1% (inactive)
CN(Cc1cc(Cl)cc(Cl)c1)CC(C(=O)c1ccccc1)c1ccccc1 (stereo not given)	81.7% (active)
COCCNC(=O)C1C(=O)N(CCOC)C(=O)/C1=N/N (stereo not given)	-33.3% (inactive)
c1ccc2c(c1)Nc1ccc3ccccc3c1S2	47.8% (inactive)
Cc1ccc(OC/C=C/c2ccc(Cl)cc2)cc1	77.2% (active)
CC(=O)Oc1ccc(C23CC4CC(CC(C4)C2)C3)cc1	98.8% (active)

====

- procedure.text: NCI Yeast Anticancer Drug Screen. Data for the mec2-1 strain (AID 157)
- study.conditions: S. cerevisiae mec2-1 strain, at 50.0 µM
The panel holds about 79,000 compounds, 15% with a hit somewhere; the sample as a whole holds those more often. The source made the active and inactive calls. Rule as the data show it: active = growth inhibition above about 70%; inactive = the rest.
Classes used: active, inactive

molecule	assigned.class
C1=NC(N(Cc2ccccc2)Cc2ccccc2)N(Cc2ccccc2)N1 (stereo not drawn)	active
Oc1ccc(C2CCc3ccccc32)cc1 (stereo not drawn)	active
Oc1ccc(O)c2nc3ccccc3nc12	inactive
CCOC(=O)c1c[nH]cc1-c1cn(S(=O)(=O)c2ccccc2)cc1C	inactive
C(=C\c1ccc(-[n+]2nc(-c3ccccc3)nn2-c2ccccc2)cc1)/c1ccccc1	active
c1c2c(cc(-n3nnc4c3CCCCCC4)c1-n1nnc3c1CCCCCC3)CCCCCC2	active
CCn1c2nc(=O)n(C)c(=O)c-2[n+]([O-])c2cc(C)ccc21	inactive
O=C(O)c1ccc(OCc2ccccc2)c(Cl)c1	inactive
O=C(CNCc1ccccc1)c1ccc(Cl)cc1	inactive
COc1ccccc1C(=O)c1ccc2ccccc2c1	active
Oc1ccc(SCc2cc(O)ccc2O)cc1	active
C(=C/c1ccnc2ccccc12)/c1cccs1	active
Brc1ccc(C2c3ccccc3-c3ccccc32)cc1	active
CC(C)=CCc1c2c(c(O)c3c(=O)c(-c4ccc(O)cc4O)coc13)C=CC(C)(C)O2	active
NCCOB1c2ccccc2Cc2ccccc21	active
CC1(c2ccc(O)cc2)CC(C)(c2ccc(O)cc2)C1 (stereo not drawn)	active
O=C1C(SCCO)=C(SCCO)C(=O)c2ccccc21	inactive
CSC(=S)N/N=C(C)/C=C/c1ccccc1	active
CC12CCC(c3sc(N)c(C#N)c31)C2(C)C (stereo not drawn)	inactive
CC(=O)C1CCC2C1(C)CC1OC13C21C=CC2(CC(O)CCC23C)C2C(=O)OC(=O)C21 (stereo not drawn)	active
Cc1cc(Br)cc(C)c1NC(=O)C(=O)C(C(=O)c1ccc2ccccc2c1)C1OC(=O)c2ccccc21 (stereo not drawn)	inactive
CC(C)(C)N1OC2(c3ccccc3)OC3N(C(C)(C)C)OC4(c5ccccc5)OC1C2(c1ccccc1)C34c1ccccc1 (stereo not drawn)	active
CCCCCCCCCCCCCCC[C@@H](O)C[N+](C)(C)CCO	active
O=C(CBr)c1cccc(OC(=O)c2ccccc2)c1	inactive
COc1ccc2c(ccc[n+]2CC(=O)c2ccc(-c3ccccc3)cc2)c1	inactive
O=C1OC(c2ccc3c(c2)OCO3)Sc2ccccc21 (stereo not drawn)	inactive
CC(C)c1ccc2c(c1)CC[C@H]1[C@](C)(C(=O)O)CCC[C@]21C	active
COc1cccc2c1C(=O)c1c(O)c3c(c(O)c1C2=O)C[C@@](O)(/C(C)=N/NC(N)=S)C[C@@H]3OC1CC(N)C(O)C(C)O1 (stereo partly drawn)	active

====

- procedure.text: NCI Yeast Anticancer Drug Screen. Data for the mlh1 rad18 strain (AID 175)
- study.conditions: S. cerevisiae mlh1 rad18 strain growth inhibition; at 50.0 µM; active compounds read high
- Protocol: Growth inhibition of yeast strains with defined genetic alterations is measured as a screen for potential anti-cancer activity. Selected strains with alterations in DNA damage repair or cell cycle control were exposed to compounds and growth inhibition was measured relative to vehicle treated controls. The strain used in this assay is mlh1 rad18
This is part of a sample that, as a whole, favours compounds with a hit. Of some 79,000 tested, about 15% had one in any assay.
Record condition met whenever growth inhibition is at -10% or higher; record condition not met when lower.

compound	assigned.class
CC(C)(CN1CCCCC1)C(=O)CC(SCCS(=O)(=O)O)c1ccc(Cl)c(Cl)c1 (stereo not given)	condition met
O=C(Nc1ccccc1Cl)c1ccc(Cl)c(Cl)c1	condition not met
O=C1OC(c2ccccc2)(c2ccccc2)Cc2ccccc21	condition met
Cc1ccc(S(=O)(=O)NNC(C[N+](=O)[O-])c2ccccc2)cc1 (stereo not given)	condition met
